Overview of recorded pKd for various binders
- target_under_test: T1, Histidine-tagged canine PD-1 protein (canine)
- T1 sequence: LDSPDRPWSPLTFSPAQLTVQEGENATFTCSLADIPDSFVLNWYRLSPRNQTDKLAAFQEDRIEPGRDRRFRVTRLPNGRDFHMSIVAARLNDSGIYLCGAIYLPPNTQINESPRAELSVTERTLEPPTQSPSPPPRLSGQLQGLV
- protocol_notes: SPR (Biacore), dPD-1-His amine-coupled to CM5 chip, antibody injected, 1:1 Langmuir fit
Kindly note that pKd refers to -log10 of the concentration in mol/L and answer with the value alone.

# binder, readout_value
measured = [
    ("1B9-H2K2-IgG4 (antibody, V domains shown) VH: EVQLVQSGAEVKKPGASVKVSCKASGYTFTSFWMNWVRLAPGAGLEWIGRVDPYDSETHYNQKFKDRAILTVDTSTSTAYMELSSLRAGDIAVYYCATQFGFSWLAYWGQGTLVTVSA VL: DIVMTQSPGSLAVSAGESVSINCKSSQSLLYSSNQKNYLAWYQQKPGESPKLLIYWASTRESGVPDRFSGSGSGTDFTLTINNVQAEDVGVYYCQQYYSNPYTFGQGTKLEIK", 9.13),
]

Next up:
The value of pKd measured for the binder 1D8-H1K2-dIgG4 (antibody, V domains shown) VH: EVQLVESGGDLVKPVGSLRLSCVASGFTFNNFGMSWVRQAPGKGLQWVATLSSGSSYTYYSDSVKGRFTISRDNAKNTLYLQMNSLRAEDTAMYYCTRGESRFAYWGQGTLVTVSA VL: GVVITQDPLSLAVTPGELVTISCRSSKSLLYKDGKTYLNWFLQKPGQTPRLLIYLMSTRASGVSDRFSGSGSGTDFTLKISRVEAEDVGVYYCQQLIEYPLTFGAGTKVELK turned out to be 8.35
